- ASSAY_OVERVIEW: pKa determination
- Assay type: physicochemical
- CONDITION: water; solvent H2O; read-out: pKa (H2O)
RECORDED_METRIC: pKa

1) COc1cc2c(cc1OC)CN1CCc3cc4c(cc3[C@@H]1C2)OCO4 [DC037009] | 7.28

* * *

- TESTED_SYSTEM: α1A-AR (Homo sapiens)
- Construct: expressed in transfected cells; host or cells: HEK293
- Sequence (P35348 whole entry): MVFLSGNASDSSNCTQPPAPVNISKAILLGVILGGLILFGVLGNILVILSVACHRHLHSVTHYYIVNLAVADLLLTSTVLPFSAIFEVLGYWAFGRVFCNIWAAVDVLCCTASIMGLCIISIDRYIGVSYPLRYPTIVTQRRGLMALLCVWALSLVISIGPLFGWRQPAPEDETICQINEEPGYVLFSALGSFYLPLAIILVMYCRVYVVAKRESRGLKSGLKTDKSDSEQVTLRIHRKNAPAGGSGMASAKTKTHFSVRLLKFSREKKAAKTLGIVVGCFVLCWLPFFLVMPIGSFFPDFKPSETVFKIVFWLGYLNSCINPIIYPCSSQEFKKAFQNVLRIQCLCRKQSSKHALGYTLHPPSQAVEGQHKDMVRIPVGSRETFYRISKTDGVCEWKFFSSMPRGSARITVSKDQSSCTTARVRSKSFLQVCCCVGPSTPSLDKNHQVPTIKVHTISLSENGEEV
- ASSAY_OVERVIEW: Calcium mobilization (Fluo-4) antagonism of phenylephrine in HEK293 cells expressing α1A-AR/Gα16
- Assay type: cell-based
- CONDITION: ratio of cell IC50 values, calcium mobilization
- Procedure: HEK293 cells stably expressing α1A-AR/Gα16, α1B-AR/Gα16, α1D-AR/Gα16 were seeded in a 96-well plate, and cultured for 24 hours. […] After incubation at room temperature for 10 min, Flex Station 3 microplate reader was used to read the value. […] After incubation with different drugs, the reaction rate of cells to 1-AR agonist phenylephrine was calculated as follows: Reaction rate %=(D−B)/(S−B)*100%; […]
Below, each of the compounds is paired with its reported α1B/α1A value.
RECORDED_METRIC: α1B/α1A

1. COc1cc2c(cc1OCc1ccccc1)C[C@H]1c3cc4c(cc3CCN1C2)OCO4 [DC037016] | 122
2. COc1cc2c(cc1OC)CN1CCc3cc(OC)c(OC)cc3[C@@H]1C2 [DC037003] | 2731
3. COc1cc2c(cc1OC)[C@@H]1Cc3cc(C)cc(C)c3CN1CC2 [DC037011] | 64.4
4. COc1cc2c(c(OC)c1OC)CN1CCc3cc4c(cc3[C@@H]1C2)OCO4 [DC037010] | 5.0
5. COc1cc2c(cc1OC)CN1CCc3cc4c(cc3[C@@H]1C2)OCO4 [DC037009] | 175
6. COc1cc2c(cc1OC)CN1CCc3cc4c(cc3C1C2)OCO4 (centres unmarked) [DC037012] | 29.2
7. COc1cc2c(cc1OC)CN1CCc3cc(OC)c(OC)cc3C1C2 (centres unmarked) [DC037001] | 1.4
8. COc1cc2c(cc1OC)[C@@H]1Cc3cc4c(cc3CN1CC2)OCO4 [DC037005] | 10.3
9. COc1ccc2c(c1)CCN1Cc3cc(OC)c(OC)cc3C[C@@H]21 [DC037004] | 2.0
10. COc1cc2c(cc1OC)C1Cc3cc4c(cc3CN1CC2)OCO4 (centres unmarked) [DC037008] | 125
11. COc1cc2c(cc1OC)[C@@H](C)N1CCc3cc(OC)c(OC)cc3[C@@H]1C2 [DC037002] | 34.2
12. COc1ccc(OC)c2c1C[C@H]1c3cc4c(cc3CCN1C2)OCO4 [DC037007] | 13.4
13. COc1cc2c(cc1O)[C@@H]1Cc3cc4c(cc3CN1CC2)OCO4 [DC037013] | 16.1
14. COc1cc2c(cc1OCc1ccccc1)CN1CCc3cc4c(cc3[C@@H]1C2)OCO4 [DC037014] | 118.5

* * *

- ASSAY_OVERVIEW: Pharmacokinetics study in rats (gavage and intravenous)
- Assay type: in vivo, SD rats
- CONDITION: male, SD, rat, plasma, po, 20 mg/kg, gavage 20 mg/kg, individual animals 1-3
RECORDED_METRIC: half-life

1. COc1cc2c(cc1OC)CN1CCc3cc4c(cc3[C@@H]1C2)OCO4 [DC037009] | 4.2 h
